tested on: blackgrass; test: Test B pre/postemergence blackgrass; assay type: in vivo, Alopecurus myosuroides; details: Preemergence, Rate 62 g/ha; scale of 0 to 10 where 0 is no effect and 10 is complete control
Measured Blackgrass plant response rating values are reported for all entries that follow.
Number, no unit, nothing else.

What does the data say about its Blackgrass plant response rating? Entry: CC[C@@H](C)n1c(=O)on(C(=O)N(c2ccc(Cl)cc2)C(C)C)c1=O 5

What does the data say about its Blackgrass plant response rating? Entry: CC(C)N(C(=O)n1oc(=O)n(CC(=O)C2CCC2)c1=O)c1ccc(Cl)cc1 0

What does the data say about its Blackgrass plant response rating? Entry: Cc1ccccc1-n1c(=O)on(C(=O)N(c2ccncc2)C(C)C)c1=O 0

What does the data say about its Blackgrass plant response rating? Entry: C=C(Cn1c(=O)on(C(=O)N(c2ccccc2)C(C)C)c1=O)C(C)(C)C 0

What does the data say about its Blackgrass plant response rating? Entry: Cc1ccccc1-n1c(=O)on(C(=O)N(c2ccc(S(C)(=O)=O)cc2)C(C)C)c1=O 0

What does the data say about its Blackgrass plant response rating? Entry: CC(C)N(C(=O)n1oc(=O)n(C(C)C(=O)N2CCOCC2)c1=O)c1ccc(Cl)cc1 (stereo not shown) 0

What does the data say about its Blackgrass plant response rating? Entry: CC(C)N(C(=O)n1oc(=O)n(CC(F)F)c1=O)c1ccc(F)cc1F 6

What does the data say about its Blackgrass plant response rating? Entry: CC1CCCCC1n1c(=O)on(C(=O)N(c2ccc(F)cc2)C(C)C)c1=O (stereo not shown) 3

What does the data say about its Blackgrass plant response rating? Entry: Cc1ccccc1-n1c(=O)on(C(=O)N(c2ccc(-c3ccccc3)cc2)C(C)C)c1=O 0

What does the data say about its Blackgrass plant response rating? Entry: CCOC(=O)C(C)N(C(=O)n1oc(=O)n(-c2c(C)cccc2C)c1=O)c1ccc(F)cc1 (stereo not shown) 0

====

Measured Morningglory plant response rating values are reported for all entries that follow.
test system: morningglory; test: Test B pre/postemergence morningglory; type: in vivo, Ipomoea hederacea; settings: Postemergence, Rate 250 g/ha; scale 0 to 10, 0 no effect, 10 complete control
Number, no unit, nothing else.

Worked examples follow.
molecular-string: Cc1cccc(C)c1-n1c(=O)on(C(=O)N(c2ccc(F)cc2F)C(C)C)c1=O
Morningglory plant response rating: 2
//
molecular-string: CCN(C(=O)n1oc(=O)n(Cc2cccs2)c1=O)C1CCCCC1
Morningglory plant response rating: 10
//
molecular-string: CCn1c(=O)on(C(=O)N(c2ccc(F)cc2F)C(C)C)c1=O
Morningglory plant response rating: 4

// below: Morningglory plant response rating requested for another molecule
Please provide the recorded Morningglory plant response rating for Cc1ccccc1-n1c(=O)on(C(=O)N(c2cc(F)ccc2F)C(C)C)c1=O , tested on morningglory. 2

====

system: velvetleaf; assay: Test B pre/postemergence velvetleaf; assay type: in vivo, Abutilon theophrasti; details: Preemergence, Rate 250 g/ha; scale of 0 to 10 where 0 is no effect and 10 is complete control
# binarize Velvetleaf plant response rating: threshold 2 inclusive, high side condition met, low side condition not met

molecule: CC(C)N(C(=O)n1oc(=O)n(C2CC2)c1=O)c1ccccc1 [Compound 243]
tested-on: velvetleaf
label-class: condition met
//
molecule: Cc1ccccc1-n1c(=O)on(C(=O)N(c2cccc(F)c2)C(C)C)c1=O [Compound 269]
tested-on: velvetleaf
label-class: condition not met
//
molecule: CC(C)N(C(=O)n1oc(=O)n(C2CCCC2)c1=O)c1ccc(Cl)cc1 [Compound 282]
tested-on: velvetleaf
label-class: condition not met
//
molecule: CC(C)N(C(=O)n1oc(=O)n(CCC2CCCCC2)c1=O)c1ccc(F)cc1 [Compound 257]
tested-on: velvetleaf
label-class: condition not met
//
molecule: Cc1cc(C)c(-n2c(=O)on(C(=O)N(c3ccc(F)cc3)C(C)C)c2=O)c(Br)c1 [Compound 224]
tested-on: velvetleaf
label-class: condition not met
//
molecule: CC(C)N(C(=O)n1oc(=O)[nH]c1=O)c1ccc(F)cc1F [Compound 391]
tested-on: velvetleaf
label-class: condition not met
//
molecule: CCC(CC)n1c(=O)on(C(=O)N(c2ccc(F)cc2F)C(C)C)c1=O [Compound 353]
tested-on: velvetleaf
label-class: condition met

Kindly review the next molecule as well.
Could you tell me if the measured Velvetleaf plant response rating of CC(C)N(C(=O)n1oc(=O)n([C@@H]2C[C@H]2C)c1=O)c1ccc(F)cc1 (relative stereo) [Compound 392] reaches 2 or more? condition met

====

Test system: wild oat
Test: Test B pre/postemergence wild oat
Format: in vivo, Avena fatua
Conditions: Preemergence, Rate 62 g/ha; scale of 0 to 10 where 0 is no effect and 10 is complete control
Procedure: […] At the same time, these crop and weed species were also treated with postemergence applications of test chemicals formulated in the same manner. […] Treated plants and controls were maintained in a greenhouse for twelve to sixteen days, after which all species were compared to controls and visually evaluated. […]
measured-metric: Wild oats plant response rating
Number, no unit, nothing else.

compound: Cc1ccccc1-n1c(=O)on(C(=O)N(c2ccccc2F)C(C)C)c1=O [Compound 204]
measured-result: 0

// below: Wild oats plant response rating requested for another compound
What does the data say about its Wild oats plant response rating? Entry: CC1CCCCC1n1c(=O)on(C(=O)N(c2ccc(F)cc2)C(C)C)c1=O (stereo not shown) [Compound 161] 0

====

Measured Plant response rating, B. signalgrass values are reported for all entries that follow.
system: surinam grass; test: Test B pre/postemergence surinam grass; format: in vivo, Brachiaria decumbens; settings: Postemergence, Rate 62 g/ha; scale 0 to 10, 0 is no effect, 10 is complete control
Number, no unit, nothing else.

molecular-string: CC(C)N(C(=O)n1oc(=O)n(CNC(=O)c2ccccc2)c1=O)c1ccc(F)cc1F
measured-metric: Plant response rating, B. signalgrass
measured-result: 0
//
molecular-string: CC[C@@H](C)n1c(=O)on(C(=O)N(c2ccc(Cl)cc2)C(C)C)c1=O
measured-metric: Plant response rating, B. signalgrass
measured-result: 0
//
molecular-string: CC[C@@H](C)n1c(=O)on(C(=O)N(c2ccc(F)cc2F)C(C)C)c1=O
measured-metric: Plant response rating, B. signalgrass
measured-result: 0

// below: Plant response rating, B. signalgrass requested for another compound
What does the data say about its Plant response rating, B. signalgrass? Entry: CC(C)N(C(=O)n1oc(=O)n(CC(F)F)c1=O)c1ccccc1 3

====

Measured Velvetleaf plant response rating values are reported for all entries that follow.
system: velvetleaf; assay: Test B pre/postemergence velvetleaf; type: in vivo, Abutilon theophrasti; conditions: Preemergence, Rate 500 g/ha; scale 0 to 10 (0 no effect, 10 complete control)
Number, no unit, nothing else.

Worked examples follow.
molecule: CC(C)N(C(=O)n1oc(=O)n([C@H](C)c2ccccc2)c1=O)c1ccc(Cl)cc1
tested-on: velvetleaf
Velvetleaf plant response rating: 0

molecule: CCn1c(=O)on(C(=O)N(c2ccc(F)cc2)C(C)C)c1=O
tested-on: velvetleaf
Velvetleaf plant response rating: 10

molecule: CC(C)N(C(=O)n1oc(=O)n(-c2nc(Cl)sc2Cl)c1=O)c1ccc(F)cc1
tested-on: velvetleaf
Velvetleaf plant response rating: 0

molecule: C=C(C)Cn1c(=O)on(C(=O)N(c2ccc(F)cc2)C(C)C)c1=O
tested-on: velvetleaf
Velvetleaf plant response rating: 7

molecule: CC1CCCCC1n1c(=O)on(C(=O)N(c2ccc(F)cc2)C(C)C)c1=O (stereo not shown)
tested-on: velvetleaf
Velvetleaf plant response rating: 0

What does the data say about its Velvetleaf plant response rating? Entry: Cc1ccccc1-n1c(=O)on(C(=O)N(c2ccc(-c3ccccc3)cc2)C(C)C)c1=O 0

What does the data say about its Velvetleaf plant response rating? Entry: CC(C)N(C(=O)n1oc(=O)n(-c2cnn(C)c2Cl)c1=O)c1ccccc1 3

====

System: wild oat
Assay: Test B pre/postemergence wild oat
Type: in vivo, Avena fatua
Details: Preemergence, Rate 62 g/ha; scale 0 to 10 (0 no effect, 10 complete control)
Method: […] At the same time, these crop and weed species were also treated with postemergence applications of test chemicals formulated in the same manner. […] Treated plants and controls were maintained in a greenhouse for twelve to sixteen days, after which all species were compared to controls and visually evaluated. […]
measured-metric: Wild oats plant response rating
Number, no unit, nothing else.

Worked examples follow.
compound: CC(C)N(C(=O)n1oc(=O)n(C(C)c2ccccc2)c1=O)c1ccc(F)cc1 (centres unmarked) [Compound 134]
tested-on: wild oat
Wild oats plant response rating: 0

compound: CC(C)=CCn1c(=O)on(C(=O)N(c2ccccc2)C(C)C)c1=O [Compound 574]
tested-on: wild oat
Wild oats plant response rating: 0

compound: CCOC(=O)CC(C(=O)OCC)n1c(=O)on(C(=O)N(c2ccccc2)C(C)C)c1=O (centres unmarked) [Compound 614]
tested-on: wild oat
Wild oats plant response rating: 0

compound: CCn1c(=O)on(C(=O)N(c2ccc(F)cc2F)C(C)C)c1=O [Compound 116]
tested-on: wild oat
Wild oats plant response rating: 7

// below: Wild oats plant response rating requested for another compound
Please provide the recorded Wild oats plant response rating for Cc1ccccc1Cn1c(=O)on(C(=O)N(c2ccc(Cl)cc2)C(C)C)c1=O [Compound 136] , tested on wild oat. 0
